Source: PubChem BioAssay (NCI)

test system: CCRF-CEM leukemia; experiment: NCI-60 one-dose screen, 48 h (100 = growth as untreated, 0 = no growth, -100 = all killed); conditions: 10 µM unless noted
This is part of a sample that, as a whole, favours compounds with a hit. Of some 83,000 tested, about 20% had one in any assay.
Property measured: growth (%)
Field: numeric (%). Do not append units.

Recorded growth for CNC(=O)OC1C(O[C@H]2C[C@H]3[C@@H]4CC=C5C[C@@H](O)CC[C@]5(C)[C@H]4CC[C@]3(C)[C@H]2[C@H](C)C(=O)CCC(C)C)OCC(O)C1OC1OCC(O)C(O)C1OC(=O)c1ccc(OC)cc1 (stereo partly drawn) , please?
-13.7

Follow-up item: NC(CCC(=O)NC(CS)C(=O)NCC(=O)O)C(=O)O (stereo not drawn)
121

Follow-up item: CCCCCCCCCCCCCCCCCC1=NCCN1CCO
53.9

Follow-up item: CCN1C(=O)N(CC)C2C1N=C(SC)N2/N=C/C=C/c1ccccc1OC (stereo not drawn)
12.5

Follow-up item: CN1CCC2(CC1)N=C(SCC(=O)Nc1cnc3ccccc3c1)C(c1ccc(Br)cc1)=N2
4.53

Follow-up item: O=C(CCl)N1c2ccccc2Oc2ccc3ccccc3c21
0.604

Follow-up item: CC(=O)OC[C@H]1O[C@@H](n2c(=O)cc(N)[nH]c2=O)C(OC(C)=O)[C@@H]1OC(C)=O (stereo partly drawn)
111

Follow-up item: Nc1ccc(C2=NNC(=O)Cc3cc4c(cc32)OCCO4)cc1Cl
42.5

Follow-up item: COc1cc(CN(CCC(O)N2CCCC2=O)Cc2ccc3c(c2)OCO3)cc(OC)c1OC (stereo not drawn)
98.3

Follow-up item: O=C1C(Cl)=C(Nc2cccc3ccccc23)C(=O)c2ccccc21
65.4

Follow-up item: CCOC(=O)N1C2CCC(C2)N1C(=O)OCC
100

Follow-up item: CCCCOc1nc2ccc(C)cc2cc1/C=C/C(=O)/C=C(O)/C=C/c1cc2cc(C)ccc2nc1OCCCC
97.6

Follow-up item: CO[C@H](C(=O)[C@@H](O)[C@@H](C)O)[C@@H]1Cc2cc3cc(O[C@H]4C[C@@H](O[C@H]5C[C@@H](O)[C@H](O)C(C)O5)[C@H](O)C(C)O4)c(C)c(O)c3c(O)c2C(=O)[C@H]1O[C@H]1C[C@@H](O[C@H]2C[C@@H](O[C@H]3C[C@](C)(O)C(=O)C(C)O3)[C@@H](O)C(C)O2)[C@H](O)C(C)O1 (stereo partly drawn)
10.3

Follow-up item: CN(C)c1nc(-c2cccs2)n2nc(-c3ccco3)cc2n1
93.9

Follow-up item: CC(=O)N1N=C(C2C(=O)N(C)C(=O)N(C)C2=O)CC1c1ccccc1C(=O)O (stereo not drawn)
94.6

Follow-up item: NNC(=O)CSc1nc2scc(-c3ccccc3)c2c(=O)n1-c1ccccc1
106

Follow-up item: COc1cc(NCCC2CCCCN2)c2ncccc2c1OC (stereo not drawn)
47.2

Follow-up item: Fc1ccc(-c2nc(-c3ccc(-c4nc5ccc(F)cc5[nH]4)cc3)no2)cc1
74.9

* * *

tested on: SK-MEL-5 melanoma; assay: NCI-60 one-dose screen, 48 h; settings: 10 µM unless noted
About 83,000 compounds went through this panel and 20% of them were active in at least one assay; those are over-represented in the sample as a whole. Activity calls are given as the source filed them. The calls were made as follows: active = growth percent below 10; inactive = the rest.
Your reply should match one of these outcome classes. t (active), f (inactive)

Hi, do you know how COc1ccc(/C(C)=N/NC(=O)c2ccc(S(C)(=O)=O)cc2)cc1OC came out in this test?
f

Follow-up item: O=C(c1ccccc1)c1cccc(C(Br)Br)c1
f

Follow-up item: CCOc1cc(/C=N\NC(=O)C[N+](C)(C)C)ccc1O
f

Follow-up item: C=C1C(=O)O[C@H]2[C@H]1CC/C(COC(=O)NCc1ccc(Cn3c(=O)sn(CCCl)c3=O)cc1)=C\CC[C@@]1(C)O[C@@H]21
f

Follow-up item: COc1cc([N+](=O)[O-])cc(OC)c1OC
f

Follow-up item: C#Cc1cccc(Nc2nc3cc([N+](=O)[O-])ccc3nc2Nc2ccc(O)cc2)c1
f

Follow-up item: CC1CCCN(CCCCOc2ccc(-c3ccc(C#N)cc3)cc2)C1 (stereo not given)
f

Follow-up item: CCCCn1cnc2c(SCc3ccc([N+](=O)[O-])cc3)nc(N)nc21
f

Follow-up item: C[C@@H]1CC2C3CCC4=CC(=O)C=C[C@]4(C)[C@@]3(Cl)[C@@H](O)C[C@]2(C)[C@@]1(OC(=O)c1ccco1)C(=O)CCl (stereo not given in full)
f

Follow-up item: Oc1c(C(Nc2ccccc2Br)c2ccccc2)ccc2cccnc12 (stereo not given)
t
